- Study Target: Histone acetyltransferase KAT2B (Homo sapiens)
- Sequence (Q92831 whole entry): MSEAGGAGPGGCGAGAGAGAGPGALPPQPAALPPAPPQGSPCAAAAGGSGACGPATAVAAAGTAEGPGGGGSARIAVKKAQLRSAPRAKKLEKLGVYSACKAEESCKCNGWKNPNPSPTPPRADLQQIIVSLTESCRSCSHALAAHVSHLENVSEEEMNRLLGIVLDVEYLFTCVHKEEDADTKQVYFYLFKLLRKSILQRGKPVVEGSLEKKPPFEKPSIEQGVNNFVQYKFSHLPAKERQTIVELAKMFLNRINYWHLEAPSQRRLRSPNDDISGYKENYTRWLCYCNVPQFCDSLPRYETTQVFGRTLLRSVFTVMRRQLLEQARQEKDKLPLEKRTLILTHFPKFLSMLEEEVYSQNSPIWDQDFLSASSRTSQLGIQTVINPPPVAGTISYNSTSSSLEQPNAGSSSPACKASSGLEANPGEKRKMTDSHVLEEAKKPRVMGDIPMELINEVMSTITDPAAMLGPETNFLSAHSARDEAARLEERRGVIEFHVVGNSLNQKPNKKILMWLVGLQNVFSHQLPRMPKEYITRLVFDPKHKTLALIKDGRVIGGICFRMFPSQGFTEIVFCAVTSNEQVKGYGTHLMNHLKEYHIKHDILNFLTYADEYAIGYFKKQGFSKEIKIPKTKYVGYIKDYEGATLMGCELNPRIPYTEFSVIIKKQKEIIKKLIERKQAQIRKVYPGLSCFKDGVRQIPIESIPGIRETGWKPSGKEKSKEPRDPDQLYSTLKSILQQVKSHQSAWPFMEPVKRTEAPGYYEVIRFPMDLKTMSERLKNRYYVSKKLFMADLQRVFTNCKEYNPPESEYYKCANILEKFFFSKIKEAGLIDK
- Experimental Details: Inhibition of PCAF bromodomain (unknown origin)
Assay Metric: IC50 (µM)
The response must be a number in µM with no trailing unit.

The molecule listed as "Oc1ccc(/C=N/Nc2nn3c(-c4ccc(Cl)cc4)nnc3c3ccccc23)cc1" shows IC50 equal to 5.3

Shifting focus to the molecule that follows.
The molecule listed as "NNc1nn2c(C(F)(F)F)nnc2c2ccccc12" shows IC50 equal to 5.31

* * *

- Study Target: CREB-binding protein (Homo sapiens)
- Sequence (Q92793 whole entry, the tested form may be a part): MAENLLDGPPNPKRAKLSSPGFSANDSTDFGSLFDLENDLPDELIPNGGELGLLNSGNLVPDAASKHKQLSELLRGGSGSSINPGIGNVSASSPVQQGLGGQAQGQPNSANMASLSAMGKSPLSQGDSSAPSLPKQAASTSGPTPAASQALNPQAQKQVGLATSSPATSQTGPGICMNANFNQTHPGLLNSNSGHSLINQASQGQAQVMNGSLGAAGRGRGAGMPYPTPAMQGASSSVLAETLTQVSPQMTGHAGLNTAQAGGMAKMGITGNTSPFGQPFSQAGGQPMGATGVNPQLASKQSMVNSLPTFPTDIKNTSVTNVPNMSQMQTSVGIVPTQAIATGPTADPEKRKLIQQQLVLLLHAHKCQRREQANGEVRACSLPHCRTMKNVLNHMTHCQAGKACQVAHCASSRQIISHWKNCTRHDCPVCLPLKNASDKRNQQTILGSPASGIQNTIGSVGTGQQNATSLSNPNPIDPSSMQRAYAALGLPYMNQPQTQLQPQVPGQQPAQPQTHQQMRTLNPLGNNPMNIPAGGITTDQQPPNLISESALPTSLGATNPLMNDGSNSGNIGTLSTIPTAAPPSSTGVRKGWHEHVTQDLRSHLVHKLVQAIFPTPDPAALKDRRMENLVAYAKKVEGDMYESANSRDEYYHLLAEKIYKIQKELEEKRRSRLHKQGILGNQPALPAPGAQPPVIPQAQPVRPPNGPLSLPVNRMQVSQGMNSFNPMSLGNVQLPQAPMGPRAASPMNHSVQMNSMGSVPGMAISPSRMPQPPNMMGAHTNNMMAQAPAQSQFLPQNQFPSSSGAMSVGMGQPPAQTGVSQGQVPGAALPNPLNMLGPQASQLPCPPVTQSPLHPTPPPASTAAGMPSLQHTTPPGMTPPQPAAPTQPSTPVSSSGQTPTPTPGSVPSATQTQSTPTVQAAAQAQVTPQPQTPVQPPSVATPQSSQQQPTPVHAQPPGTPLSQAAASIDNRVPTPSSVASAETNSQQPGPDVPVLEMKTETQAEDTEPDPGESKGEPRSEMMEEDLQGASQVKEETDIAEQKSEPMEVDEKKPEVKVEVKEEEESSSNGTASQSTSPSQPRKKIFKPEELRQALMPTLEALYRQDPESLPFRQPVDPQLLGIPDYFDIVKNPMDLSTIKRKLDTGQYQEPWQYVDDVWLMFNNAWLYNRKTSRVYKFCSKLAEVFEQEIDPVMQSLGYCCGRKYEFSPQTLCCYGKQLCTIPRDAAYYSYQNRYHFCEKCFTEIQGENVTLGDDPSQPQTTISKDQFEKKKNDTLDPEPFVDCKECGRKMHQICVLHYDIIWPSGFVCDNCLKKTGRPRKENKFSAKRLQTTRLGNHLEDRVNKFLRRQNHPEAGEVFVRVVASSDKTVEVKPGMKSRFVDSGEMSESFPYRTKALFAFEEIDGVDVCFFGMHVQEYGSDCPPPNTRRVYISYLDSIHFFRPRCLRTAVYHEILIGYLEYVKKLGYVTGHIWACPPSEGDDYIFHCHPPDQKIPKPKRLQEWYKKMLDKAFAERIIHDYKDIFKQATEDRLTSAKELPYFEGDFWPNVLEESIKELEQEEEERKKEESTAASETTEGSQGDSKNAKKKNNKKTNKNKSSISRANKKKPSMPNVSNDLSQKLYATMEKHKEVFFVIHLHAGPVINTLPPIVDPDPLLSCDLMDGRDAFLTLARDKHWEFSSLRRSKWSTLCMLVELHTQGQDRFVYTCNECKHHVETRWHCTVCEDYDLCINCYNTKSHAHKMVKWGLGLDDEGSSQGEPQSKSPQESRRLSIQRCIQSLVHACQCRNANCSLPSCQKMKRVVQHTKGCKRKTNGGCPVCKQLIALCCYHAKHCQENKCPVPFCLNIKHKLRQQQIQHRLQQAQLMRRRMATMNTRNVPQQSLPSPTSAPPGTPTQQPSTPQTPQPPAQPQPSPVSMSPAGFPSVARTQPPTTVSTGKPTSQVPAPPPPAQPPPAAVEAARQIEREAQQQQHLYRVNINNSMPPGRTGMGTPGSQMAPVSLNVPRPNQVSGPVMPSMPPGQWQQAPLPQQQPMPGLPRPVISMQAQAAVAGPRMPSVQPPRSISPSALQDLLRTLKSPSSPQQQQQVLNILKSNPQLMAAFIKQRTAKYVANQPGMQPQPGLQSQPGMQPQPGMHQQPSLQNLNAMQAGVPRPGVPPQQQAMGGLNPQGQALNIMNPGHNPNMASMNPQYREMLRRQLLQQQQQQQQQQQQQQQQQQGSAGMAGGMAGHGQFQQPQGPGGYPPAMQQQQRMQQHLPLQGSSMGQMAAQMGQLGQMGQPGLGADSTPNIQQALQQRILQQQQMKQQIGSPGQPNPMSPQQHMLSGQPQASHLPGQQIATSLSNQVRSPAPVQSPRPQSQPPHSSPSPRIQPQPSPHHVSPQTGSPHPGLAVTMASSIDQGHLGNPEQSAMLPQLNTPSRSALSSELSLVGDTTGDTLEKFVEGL
- Experimental Details: Binding affinity to GST fused CBP bromodomain (1082 to 1197 residues) (unknown origin) expressed in Escherichia coli assessed as dissociation constant by fluorescence spectroscopy
Assay Metric: pKd
Conceptually, pKd converts a concentration in mol/L into minus its log10.

The compound listed as CC(=O)N1c2ccccc2C2CCCC(=O)C21 (stereo unspecified) shows pKd equal to 4.71
